B1: tRNA (parent)
chain: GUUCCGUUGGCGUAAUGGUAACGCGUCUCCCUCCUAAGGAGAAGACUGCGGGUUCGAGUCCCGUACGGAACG

Variants of: B1
Test: yeast fitness relative to wild type (ratio to wild type); higher = fitter; tRNA-Arg(CCU), competitive growth, 37 C, YPD
Variants at the floor of the assay were thinned out.
Field: yeast fitness. Provide a value for each of the variants that follow.
# output: bare number, no unit

Incoming: # input variant: G6C C11A U32A A42G C55U ; wanted: its yeast fitness
Outgoing: 0.605

Incoming: Can you look up the measured yeast fitness of U8C A57G for me?
Outgoing: 0.856

Incoming: # input variant: C61A C66G ; wanted: its yeast fitness
Outgoing: 0.572

Incoming: Name the reported yeast fitness value associated with the variant G63A U64A
Outgoing: 0.864

Incoming: Need yeast fitness, item A20G G23A
Outgoing: 0.89

Incoming: Please give the measured yeast fitness for this variant: C4A C29G C34G
Outgoing: 0.782

Incoming: Field request: yeast fitness | item: U3G A45C G63A A69U
Outgoing: 0.831

Incoming: Given the variant C5A A21G , what is its reported yeast fitness?
Outgoing: 0.942

Incoming: Find the recorded yeast fitness belonging to A15G U28C U35A G38A C46G and report it.
Outgoing: 0.552

Incoming: Look up yeast fitness: A42C G51A
Outgoing: 0.849

Incoming: Give its yeast fitness value. Item: U35C A40G
Outgoing: 0.711

Incoming: Any idea what its yeast fitness is? The variant is C5U A70U
Outgoing: 0.98

This collection of values is drawn from the RNAGym collection of RNA variant scans (doi:10.1126/science.aae0568).
